Data provenance is paper PMC4049535.

# target-under-test: Antigen 85C (Ag85C) (Mycobacterium tuberculosis, UniProt P9WQN9)
# Sequence (P9WQN9 46-340): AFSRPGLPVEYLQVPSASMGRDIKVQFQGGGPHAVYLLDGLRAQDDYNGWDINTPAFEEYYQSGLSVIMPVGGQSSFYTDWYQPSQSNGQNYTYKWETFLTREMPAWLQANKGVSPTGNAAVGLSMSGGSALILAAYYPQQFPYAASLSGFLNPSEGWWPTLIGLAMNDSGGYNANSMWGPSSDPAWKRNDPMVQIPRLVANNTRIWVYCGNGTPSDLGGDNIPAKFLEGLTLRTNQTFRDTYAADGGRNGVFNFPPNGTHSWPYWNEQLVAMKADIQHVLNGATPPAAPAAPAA
metric-name: pKi
Field pKi (float): negative decimal logarithm of the concentration in molar.

For the molecule shown here, `O=c1c2ccccc2[se]n1-c1ccccc1` , give the reported pKi. 7.20
